Tested on: HSV-1 Strain F in Vero or MRC5 cells
Assay: Viral qPCR assay HSV-1 (V0/V1, V2/V3), EC50
Assay type: cell-based
Settings: Human alphaherpesvirus 1, Vero, VERO cells, 10%; read-out: HSV1 Cell (EC50) VERO 10%
I'd be grateful if you could share measured EC50 for these entries.
Value expressed in nM; do not type the unit.

What value of measured EC50 is listed for "CC(=O)N1CCC(Oc2cc(C(=O)NCc3ccc(Cl)cc3)ncc2-c2cc[nH]n2)CC1" ?
1170

Suppose we examine the molecule "O=C(NCc1ccc(Cl)cc1)c1cc(O[C@H]2CCN3C(=O)OC[C@@H]3C2)c(-c2ncco2)cn1" ; what EC50 value has been reported?
210

May I ask what EC50 has been recorded for O=C(NCc1ccc(Cl)cc1)c1cc(O[C@H]2CCN3C(=O)OCC[C@@H]3C2)c(-c2cnn(C(F)F)c2)cn1 (single isomer, unassigned) ?
77

What value of EC50 has been recorded for this entry: "N#Cc1ccc(CNC(=O)c2cc(O[C@H]3CCN4C(=O)OC[C@@H]4C3)c(-c3cnn(C(F)F)c3)cn2)cc1"
239

Can you share its EC50? I mean this molecule: "CC(=O)N1CCC(Oc2cc(C(=O)NCc3ccc(Cl)cc3)ncc2/C=C/CO)CC1"
842

// lookup EC50 for "Cn1cc(-c2cnc(C(=O)NCc3ccc(Cl)cc3F)cc2O[C@H]2CCN3C(=O)OC[C@@H]3C2)cn1"
191

Field request: EC50 | item: CC(=O)N1CCC(Oc2cc(C(=O)NCc3ccc(Cl)cc3)ncc2/C=C/CC(C)O)CC1 (stereo not shown)
1110

###

Test system: HSV-1 Strain F in Vero or MRC5 cells
Assay: Viral qPCR assay HSV-1 (V0/V1, V2/V3), EC50
Assay type: cell-based
Conditions: Human alphaherpesvirus 1, Vero, VERO cells, 10%; read-out: HSV1 Cell (EC50) VERO 10%
pEC50: −log10 of the molar value.
Response key: T means pEC50 >= 6; F means pEC50 < 6.

Hi team, for "O=C(NCc1ccc(Cl)cc1)c1cc(O[C@H]2CCN3C(=O)OC[C@@H]3C2)c(OCC(F)(F)F)cn1" , is the recorded pEC50 at or above 6?
T

Hi team, for "O=C(NCc1ccc(Cl)cc1)c1cc(O[C@H]2CCN3C(=O)OC[C@@H]3C2)c(O)cn1" , is the recorded pEC50 at or above 6?
F

Exam item: decide whether the reported pEC50 for "O=C(NCc1ccc(Cl)cc1)c1cc(O[C@H]2CCN3C(=O)OC[C@@H]3C2)c(-c2cnn(C3CC3)c2)cn1" is at least 6.
T

Reported pEC50 reaches at least 6 for "O=C(NCc1ccc(Cl)cc1)c1cc(O[C@H]2CCN3C(=O)OC[C@@H]3C2)c(CN2CCCOCC2)cn1" ?
T

Assess whether reported pEC50 for "CC(=O)N1CCC(Oc2cc(C(=O)NCc3ccc(Cl)cc3)ncc2-c2ncc(C)s2)CC1" sits at 6 or higher.
T

In plain terms: is recorded pEC50 at least 6 for "O=C(NCc1ccc(Cl)cc1)c1cc(O[C@H]2CCN3C(=O)OC[C@@H]3C2)c(-c2cnn(C3COC3)c2)cn1" ?
T

Given "O=C(NCc1ccc(Cl)cc1)c1cc(O[C@H]2CCN3C(=O)OC[C@@H]3C2)c(CN2CCC(O)CC2)cn1" , state whether its pEC50 is at least 6.
F

Reference source: patent US20240067657A1
